Where a SMILES comes first, the peptide text is derived from it.
Threshold 2: logP strictly smaller gives Condition met, otherwise Condition not met.

compound	category_label
COC1CC(OC2C(C)OC(OC3CCC4(C)C(CCC5C4CC(O)C4(C)C(C6=CC(=O)OC6)CCC54O)C3)CC2OC)OC(C)C1OC1CC(O)C(O)C(C)O1 (stereo not drawn)	Condition not met
CSCCC(NC(=O)C(N)CC(C)C)C(=O)O (stereo not drawn) (H-Leu-Met-OH; configuration not given here)	Condition met
CCCCCCCCCCCCCCc1ccccc1	Condition not met
CC(C)NC(=NC#N)NS(=O)(=O)c1cnccc1NC1CCCCCC1	Condition not met
CCCCC(Nc1ccc([N+](=O)[O-])cc1[N+](=O)[O-])C(=O)O (stereo not drawn)	Condition not met
CN(C)C(=O)Nc1cccc(OCc2ccc(Cl)cc2Cl)c1	Condition not met
COC(=O)C(C)NP(=O)(OCC1C=CC(n2cc(C)c(=O)[nH]c2=O)O1)Oc1ccc(F)cc1 (stereo not drawn)	Condition met
O=[N+]([O-])c1ccc(-n2cccn2)cc1	Condition not met
CCCC1C(=O)N(CCN(C)C)c2cccc(C(F)(F)F)c2CC1c1ccc(OC)cc1 (stereo not drawn)	Condition not met
CCCc1nc(NC(=O)c2ccccc2)nc(N2CCOCC2)n1	Condition met
Cc1cc2oc(=O)cc(C)c2c2occc12	Condition not met
Clc1cc(Cl)c(-c2c(Cl)ccc(Cl)c2Cl)c(Cl)c1	Condition not met
OCCN1CCN(CCCOn2nnc3ccccc32)CC1	Condition met
COc1ccccc1CNC1CCCNC1c1ccccc1 (stereo not drawn)	Condition not met
C#CCN(N=O)C(=O)NCCCCC(NC(C)=O)C(=O)NCc1ccccc1 (stereo not drawn)	Condition met
CC(C)CC(N)C(=O)NC(CC(C)C)C(=O)N1CCCC1C(=O)NC(CC(C)C)C(=O)O (stereo not drawn) (H-LLPL-OH; configuration not given here)	Condition met
O=c1cc(-c2c(Cl)cccc2Cl)oc2ccccc12	Condition not met
CCCCNc1ncnc2c1ncn2C1OC(CO)C(O)C1O (stereo not drawn)	Condition met
COc1ccc(CCNCC(O)COc2ccc(-c3nc(C)c(Br)[nH]3)cc2)cc1OC (stereo not drawn)	Condition not met
COC(=O)c1c(Oc2nc(OC)cc(OC)n2)cccc1C(C)=NOCC(F)(F)F	Condition not met
COC(=O)C(C)NP(=O)(OCC1C=CC(n2cc(C)c(=O)[nH]c2=O)O1)Oc1ccc(C#N)cc1 (stereo not drawn)	Condition met
CCC(C)C(NC(=O)C(NC(=O)C(N)CC(C)C)C(C)O)C(=O)O (stereo not drawn) (H-Leu-Thr-Ile-OH; configuration not given here)	Condition met
CC(C)N(CC1CN=C(N)O1)C(C)C (stereo not drawn)	Condition met
O=C1c2ccc(Cl)cc2OCN1CCO[N+](=O)[O-]	Condition not met
CCCCCCCNC1=NS(=O)N=C1NCCSCc1ccc(CN(C)C)o1 (stereo not drawn)	Condition not met
CNC(=O)Oc1ccc2c(c1)CC(c1ccc(OC)cc1)C(OC(C)=O)C(=O)N2CCN(C)C (stereo not drawn)	Condition not met
CCCNc1ncnc2c1ncn2C1OC(CO)C(O)C1O (stereo not drawn)	Condition met
O=C1C=C(N2CCCC2)C(=O)N1c1ccc(Cl)cc1	Condition not met
Cc1oc2cc3oc(=O)cc(C)c3cc2c1C	Condition not met
NC1=NCC(COc2cccc(Cl)c2)O1 (stereo not drawn)	Condition not met
O=C(O)CCCCCON=C(c1cccc(C(F)(F)F)c1)c1ccncn1	Condition not met
CCC(C)C(N)C(=O)NC(C(=O)O)C(C)CC (stereo not drawn) (H-Ile-Ile-OH; configuration not given here)	Condition met
CCNc1ccc(NC(=O)N(C)OC)cc1	Condition met
CCCN(CCC)C1CCc2c(cccc2OC)C1 (stereo not drawn)	Condition not met
CC(C)CC(Nc1ccc([N+](=O)[O-])cc1[N+](=O)[O-])C(=O)O (stereo not drawn)	Condition not met
CCOc1ccc(-n2nnnc2N)cc1	Condition met
COc1cc(OC)nc(Oc2cccc(C(F)(F)F)c2C(=O)O)n1	Condition not met
Clc1ccc(C2(Cn3cncn3)OCC3(CCC4OC4C3)CO2)c(Cl)c1 (stereo not drawn)	Condition met
COC1C(OC(C)=O)CC(=O)OC(C)CC=CC=CC(=O)C(C)CC(CC=O)C1OC1OC(C)C(OC2CC(CO)C(OC(=O)CC(C)C)C(C)O2)C(N(C)C)C1O (stereo not drawn)	Condition not met
NC(=O)c1cccc(Cn2ccnc2)c1	Condition met
CCCNC(=O)CNC(=O)C=[N+]=[N-]	Condition met
Nc1nnnn1-c1cccc([N+](=O)[O-])c1	Condition met
